Tested on: S. cerevisiae (BY4743 strain)
Experiment: Yeast growth inhibition dose response (OD600)
Type: cell-based
Conditions: Saccharomyces cerevisiae, 14 h, BY4743, 14 h, 30 °C, YPD, 2% DMSO
Description: Figure 2 FR171456 targets Erg26p in S. cerevisiae. (a) Structures of FR171456, and two related triterpenes (compound 1, compound 2). (b) Duplicate 12-point Dose response curves of wild-type diploid yeast with three compounds in a. […] Y axis: OD600 absorbance indicating yeast growth, x axis: compound concentrations (log10 μM). […]
Quantity: IC50

| Molecule | Experimental Value |
| --- | --- |
| C=C(CCC(C)C1CCC2C1(C)CC(O)C13CC14C(=O)CC(O)C(C)(C(=O)O)C4C(=O)CC23O)C(C)C (stereo not drawn) | 14 µM |

Request: Notebook: pull reported IC50 for S. cerevisiae (BY4743 strain), entry C=C(CCC(C)C1CCC2C1(C)CC(O)C13CC14C(=O)CC(O)C(C)(C(=O)O)C4C(=O)CC23O)C(C)CO (stereo not drawn)
Result: > 200 µM

Request: Notebook: pull reported IC50 for S. cerevisiae (BY4743 strain), entry C=C(CCC(C)C1CCC2C1(C)CC(O)C13CC14C(=O)CC(O)C(C)(C(=O)NCc1ccccc1)C4C(=O)CC23O)C(C)C (stereo not drawn)
Result: > 200 µM

---

target: Erg26p (Saccharomyces cerevisiae)
Sequence (P53199 whole entry): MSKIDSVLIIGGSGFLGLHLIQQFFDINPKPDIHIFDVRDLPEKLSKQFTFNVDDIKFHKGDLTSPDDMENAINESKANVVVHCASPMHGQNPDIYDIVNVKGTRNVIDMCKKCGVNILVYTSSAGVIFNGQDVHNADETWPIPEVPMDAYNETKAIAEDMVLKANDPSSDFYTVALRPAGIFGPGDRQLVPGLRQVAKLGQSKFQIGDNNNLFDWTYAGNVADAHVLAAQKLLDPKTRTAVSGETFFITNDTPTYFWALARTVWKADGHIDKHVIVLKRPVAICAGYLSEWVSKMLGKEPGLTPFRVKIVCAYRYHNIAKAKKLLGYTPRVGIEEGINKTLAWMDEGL
Quantity: pKi
Formally, pKi is defined as -log10 of the concentration c, with c in mol/L.

Request: Need pKi, item C=C(CCC(C)C1CCC2C1(C)CC(O)C13CC14C(=O)CC(O)C(C)(C(=O)O)C4C(=O)CC23O)C(C)C (stereo not shown)
Result: 5.87
